The measurements presented in this section are drawn from patent US10611740B2.

Molecular target: Gal4-RORγ-LBD (Homo sapiens, UniProt P51449)
Construct: expressed in transfected cells; host or cells: HEK-293 cells (pcDNA3.1neo plasmid)
Sequence (P51449 269-508 limits assumed): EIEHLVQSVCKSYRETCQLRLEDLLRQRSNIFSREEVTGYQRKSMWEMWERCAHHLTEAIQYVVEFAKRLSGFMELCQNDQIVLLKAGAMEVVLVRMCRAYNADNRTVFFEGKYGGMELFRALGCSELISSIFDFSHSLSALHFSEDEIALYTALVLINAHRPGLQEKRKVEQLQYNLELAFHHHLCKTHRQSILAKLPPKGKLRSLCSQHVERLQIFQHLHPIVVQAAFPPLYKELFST
Test: Gal4-RORγ Luciferase Reporter Assay in HEK-293T Cells
Assay type: cell-based
Conditions: HEK-293 cells, luciferase reporter, with 2 μM ursolic acid
Reported EC50 values are given for each entry in this list.

# MOLECULE, ASSAYED_SYSTEM, EC50
measured = [
    ("O=C(NC[C@H]1CN(S(=O)(=O)c2cccc(C(F)(F)F)c2)c2cc(-c3cc(F)ccc3F)ccc2O1)[C@@H]1C[C@@H]1F [Compound 30AM]", "Gal4-RORγ-LBD (Homo sapiens, UniProt P51449)", "< 500 nM"),
    ("Cn1ccnc1-c1ccc2c(c1)N(S(=O)(=O)c1cccc(C(F)(F)F)c1)C[C@H](CCC(=O)O)O2", "Gal4-RORγ-LBD (Homo sapiens, UniProt P51449)", "> 10000 nM"),
    ("C=CCC(=O)NC[C@H]1CN(S(=O)(=O)c2cccc(C(F)(F)F)c2)c2cc(-c3cc(F)ccc3F)ccc2O1 [Compound 30AW]", "Gal4-RORγ-LBD (Homo sapiens, UniProt P51449)", "< 500 nM"),
    ("CC(C)c1cccc(S(=O)(=O)N2C[C@H](CNC(=O)C(C)(C)O)Oc3ccc(-c4cc(F)ccc4F)cc32)c1 [Compound 30K]", "Gal4-RORγ-LBD (Homo sapiens, UniProt P51449)", "< 500 nM"),
    ("O=C(O)CC[C@H]1CN(S(=O)(=O)c2cccc(C(F)(F)F)c2)c2cc(-c3ncc4ccccn34)ccc2O1", "Gal4-RORγ-LBD (Homo sapiens, UniProt P51449)", "500 to 5000 nM"),
    ("CC(C)(C[C@H]1CN(S(=O)(=O)c2cccc(C(F)(F)F)c2)c2cc(-c3cccc(OC(F)(F)F)c3)ccc2O1)C(=O)O [Compound 32F]", "Gal4-RORγ-LBD (Homo sapiens, UniProt P51449)", "< 500 nM"),
    ("CN(CCC(=O)O)C(=O)NCC[C@H]1CN(S(=O)(=O)c2cccc(C(F)(F)F)c2)c2cc(-c3cc(F)ccc3F)ccc2O1 [Compound 23Y]", "Gal4-RORγ-LBD (Homo sapiens, UniProt P51449)", "< 500 nM"),
]
